Reference source: patent US12398111B2

biological target: human mPGES-1 (Homo sapiens); construct: made in house; host or cells: FreeStyle CHO-S cells (Chinese hamster ovary), transient transfection with pcDNA3.1(+)/human mPGES-1; microsome fraction used; test: Evaluation of human mPGES-1 enzyme inhibitory activity (PGE2 measured by HTRF, microsome fraction of CHO-S cells expressing human mPGES-1); type: biochemical; conditions: IC50 value; microsome fraction of CHO-S cells expressing human mPGES-1, PGE2 by HTRF
pIC50: −log10 of the molar value.
Measurement Kind: pIC50

Reference set, count: 5
{"Structure String": "CC(C)(C(=O)NCc1ccc(Cl)c(-c2nc(O)nc(-c3ccc(OCC4CC4)cc3)n2)c1)C(F)(F)F", "Observed Result": 9.30}
{"Structure String": "CC(C)Oc1cccc(-c2nc(O)nc(-c3cc(CNC(=O)C(C)(C)C(F)(F)F)ccc3Cl)n2)c1", "Observed Result": 9.40}
{"Structure String": "CO[C@](C)(C(=O)NCc1ccc(Cl)c(-c2nc(O)nc(-c3ccccc3)n2)c1)C(F)(F)F", "Observed Result": 9.10}
{"Structure String": "CCO[C@@](C)(C(=O)NCc1ccc(Cl)c(-c2nc(O)nc(-c3ccccc3)n2)c1)C(F)(F)F", "Observed Result": 8.04}
{"Structure String": "CO[C@](C)(C(=O)NCc1ccc(Cl)c(-c2nc(O)nc(-c3ccc(F)c(C)c3)n2)c1)C(F)(F)F", "Observed Result": 9.15}

a. CC(=O)NCc1ccc(C)c(-c2nc(O)nc(-c3ccc(C(F)(F)F)cc3)n2)c1
b. CCCOc1ccc(-c2nc(O)nc(-c3cc(CNC(=O)C4(C(F)(F)F)CC4)ccc3Cl)n2)cc1
Form field 'greater pIC50' accepts a or b ; which applies? # respond with the chosen item's label
b

a. CCOc1cccc(-c2nc(O)nc(-c3cc(CNC(=O)C(C)(C)C)ccc3Cl)n2)c1
b. Oc1nc(-c2ccc(C#Cc3ccccc3)cc2)nc(-c2c(OCc3cccc(C(F)(F)F)n3)cccc2C(F)(F)F)n1
Out of a and b , name the one with the higher pIC50. Respond using the label that marks the chosen record.
a

1. CC(C)(C)C#Cc1ccc(-c2nc(O)nc(-c3c(Cl)cccc3OCc3ccccn3)n2)cc1
2. CC(C)C(=O)NCc1ccc(Cl)c(-c2nc(O)nc(-c3ccc(C(F)(F)F)cc3)n2)c1
3. Cc1ccc(F)cc1-c1nc(O)nc(-c2ccc(C(F)(F)F)cc2)n1
4. Cc1cccc(-c2nc(O)nc(-c3c(C)cccc3C)n2)c1
Order each entry by recorded pIC50, climbing from the minimum. # list labels per requested ordering
4, 3, 1, 2
(4: 4.64, 3: 6.09, 1: 8.39, 2: 9.22)

a. CC(C)Cc1ccc(-c2nc(O)nc(-c3cc(CC(=O)N(C)C(C)(C)C)ccc3Cl)n2)cc1
b. CC(C)(C(=O)NCc1ccc(Cl)c(-c2nc(O)nc(-c3ccc(F)c(Cl)c3)n2)c1)C(F)(F)F
Pick one: a or b . Which has the bigger pIC50 number? Provide the label of your selected option as the answer.
b

---

Target: human mPGES-1 (Homo sapiens, UniProt O14684)
Construct: made in house; host or cells: FreeStyle CHO-S cells (Chinese hamster ovary), transient transfection with pcDNA3.1(+)/human mPGES-1; microsome fraction used
Sequence (O14684 1-152): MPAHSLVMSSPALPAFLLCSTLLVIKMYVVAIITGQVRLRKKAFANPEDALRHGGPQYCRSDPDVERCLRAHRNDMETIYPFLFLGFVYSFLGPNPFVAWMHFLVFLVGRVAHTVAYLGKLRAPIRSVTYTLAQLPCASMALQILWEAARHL
Assay: Evaluation of human mPGES-1 enzyme inhibitory activity (PGE2 measured by HTRF, microsome fraction of CHO-S cells expressing human mPGES-1)
Assay type: biochemical
Settings: IC50 value; microsome fraction of CHO-S cells expressing human mPGES-1, PGE2 by HTRF
Measurement Kind: IC50 (nM)

a. O=C(O)c1ccc(Cl)c(-c2nc(O)nc(-c3ccc(C(F)(F)F)cc3)n2)c1
b. CC(C)COc1ccc(-c2nc(O)nc(-c3c(Cl)cccc3O[C@@H](C)c3ccccn3)n2)cc1
c. CC(C)Oc1cccc(Cl)c1-c1nc(O)nc(-c2ccc(C(F)(F)F)cc2)n1
d. Cc1cccc(C)c1-c1nc(O)nc(-c2ccc(CCc3ccccc3)cc2)n1
e. CCOc1cccc(Cl)c1-c1nc(O)nc(-c2ccc(C(F)(F)F)cc2)n1
I'd appreciate it if you sorted the entries above by their IC50, lowest to highest. To answer, write out the labels according to the requested order.
b, e, d, c, a
(b: 27 nM, e: 39 nM, d: 141 nM, c: 341 nM, a: 27000 nM)

---

Data export: IC50 values recorded with human mPGES-1 (Homo sapiens, UniProt O14684).
Measurement Kind: IC50 (nM)

{"Molecule": "Cc1cc(Cl)c(-c2nc(O)nc(-c3ccc(OCC4CC4)cc3)n2)cc1C(=O)N(C)C", "Output Unit": "nM", "Observed Result": 6900}

P. Cc1ccccc1C#Cc1ccc(-c2nc(O)nc(-c3c(OCc4ccccn4)cccc3C(F)(F)F)n2)cc1
Q. Cc1cc(-c2nc(O)nc(-c3cc(CNC(=O)C4(C(F)(F)F)CC4)ccc3Cl)n2)ccc1F
// which entry reports the smaller IC50, P or Q ? Write the label of whichever entry you select.
Q

---

The following are reported IC50 results, target or system human mPGES-1 (Homo sapiens).
Measurement Kind: IC50 (nM)

Some solved entries appear below for comparison.
{"Molecule": "CCCCc1ccc(-c2nc(O)nc(-c3cc(CNC(=O)C(C)(C)C(F)(F)F)ccc3Cl)n2)cc1", "Output Unit": "nM", "IC50": 4.1}
{"Molecule": "CN(Cc1ccc(Cl)c(-c2nc(O)nc(-c3ccccc3)n2)c1)C(=O)C(C)(C)C(F)(F)F", "Output Unit": "nM", "IC50": 16}
{"Molecule": "Cc1cccc(COc2cccc(C(F)(F)F)c2-c2nc(O)nc(-c3ccc(C#Cc4cccc(F)c4)cc3)n2)n1", "Output Unit": "nM", "IC50": 5.5}
{"Molecule": "Cc1cccc(C)c1-c1nc(O)nc(-c2ccc(Cl)c(OCc3ccccc3)c2)n1", "Output Unit": "nM", "IC50": 19}
{"Molecule": "CC(C)(C)COc1ccc(-c2nc(O)nc(-c3cc(CNC(=O)C(C)(C)C(F)(F)F)ccc3C(F)(F)F)n2)cc1", "Output Unit": "nM", "IC50": 16}

A. CC(C)(C)COc1ccc(-c2nc(O)nc(-c3cc(CCNC(=O)C(C)(C)C(F)(F)F)ccc3Cl)n2)cc1
B. CC#CCOc1ccc(-c2nc(O)nc(-c3cc(CNC(=O)C(C)(C)C(F)(F)F)ccc3Cl)n2)cc1
Form field 'greater IC50' accepts A or B ; which applies? Provide the label of your selected option as the answer.
A

---

Measured pIC50 on human mPGES-1 (Homo sapiens) follows.
pIC50: −log10 of the molar value.
Measurement Kind: pIC50

{"Molecule": "CC(C)(C)C(=O)NCc1ccc(Cl)c(-c2nc(O)nc(-c3ccc(F)cc3)n2)c1", "pIC50": 9.22}
{"Molecule": "CCNCc1ccc(Cl)c(-c2nc(O)nc(-c3ccc(OCC(C)(C)C)cc3)n2)c1", "pIC50": 6.54}
{"Molecule": "CC(C)COc1ccc(-c2nc(O)nc(-c3cc(CNC(=O)C(C)(C)C(F)(F)F)ccc3Cl)n2)cc1", "pIC50": 8.60}
{"Molecule": "CCC(C)(C)C(=O)N(C)Cc1ccc(Cl)c(-c2nc(O)nc(-c3ccccc3)n2)c1", "pIC50": 7.35}
{"Molecule": "Cc1cccc(COc2cccc(C(F)(F)F)c2-c2nc(O)nc(-c3ccc(C#Cc4ccccc4F)cc3)n2)n1", "pIC50": 8.42}
{"Molecule": "CN(C)C(=O)NCc1ccc(Cl)c(-c2nc(O)nc(-c3ccc(C(F)(F)F)cc3)n2)c1", "pIC50": 8.23}

1. Oc1nc(-c2ccc(OCC3CC3)cc2)nc(-c2c(Cl)cccc2OCc2ccccn2)n1
2. CO[C@@](C)(C(=O)NCc1ccc(Cl)c(-c2nc(O)nc(-c3ccccc3)n2)c1)C(F)(F)F
Kindly compare 1 with 2 and tell me which has the lower pIC50 figure. Your answer should be the label attached to the chosen record.
1

I. Cc1ccc(-c2nc(O)nc(-c3cc(CNC(=O)C(C)(C)C(F)(F)F)ccc3Cl)n2)cc1F
II. Cc1cccc(COc2cccc(C(F)(F)F)c2-c2nc(O)nc(-c3ccc(C#Cc4ccc(F)cc4)cc3)n2)n1
III. COCCc1ccc(Cl)c(-c2nc(O)nc(-c3ccc(OCC(C)(C)C)cc3)n2)c1
IV. C[C@H](Oc1cccc(Cl)c1-c1nc(O)nc(-c2ccc(OCC(C)(C)C)cc2)n1)c1ccccc1
Falling order of pIC50, please. Answer by writing out the labels in the requested order.
I, II, III, IV
